B1: HDV Ribozyme (parent)
chain: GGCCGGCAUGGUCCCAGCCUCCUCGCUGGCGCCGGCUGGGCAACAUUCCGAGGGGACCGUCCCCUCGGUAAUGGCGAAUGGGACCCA

- Variants of: B1
- assayProcedure: self-cleavage, relative activity (ratio to wild type); higher = more cleavage; co-transcriptional
observationType: self-cleavage
The answer should be a number; do not append a unit.

variantString	self-cleavage
G38U G73C	0.169
C49G A71C	0.302
C63A A71G	0.504

Here is another variant to look at.
Q: Respond only with self-cleavage recorded for C19U G80U
Ans: 0.0642

Provenance of the data: the RNAGym collection of RNA variant scans (doi:10.7554/elife.80360)
